Biological target: T1, interleukin 8 (CXCL8) (100-175: Shenandoah Biotechnology, Inc.) (UniProt P10145 28-99)
T1 construct: the antibodies tested are mouse anti-human IL-8 antibodies; also called IL-8
T1 sequence (looked up): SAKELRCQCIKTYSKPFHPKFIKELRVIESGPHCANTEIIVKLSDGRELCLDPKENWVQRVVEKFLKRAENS
Assay: SPR (Biacore 8K), antigen immobilized on CM4 chip, antibody as analyte
quantity: Kd (nM)

R4 variant of anti-IL-8 antibody (clone 146-1) (Fab, V domains shown, not shown: a dimerising Fc or GST, Light chain positions 63, 65, 67, 70 (Chothia) changed to Arg; Fab) VH: EVQLVESGGGLVKPGGSLKLSCAASGFTFSSYAMSWVRQTPEKRLEWVATISNGGSYTYYPDSLKGRFTISRDNAKNTLYLQMSSLRSEDTAIYYCARGITGGVYFDYWGQGTTLTVSS VL: DIQMTQSPASLSASVGETVTITCRASENIYSYLAWYQQKQGKSPHLLVYDAETLAEGVPSRFRGRGRGTRFSLKINSLQPEDFGSYYCQHHYGTPWTFGGGTKLEIKR | 3.14
